IC50 by entry:
- Target Or Test System: Histone deacetylase 1 (Homo sapiens)
- Sequence (Q13547 whole entry, the tested form may be a part): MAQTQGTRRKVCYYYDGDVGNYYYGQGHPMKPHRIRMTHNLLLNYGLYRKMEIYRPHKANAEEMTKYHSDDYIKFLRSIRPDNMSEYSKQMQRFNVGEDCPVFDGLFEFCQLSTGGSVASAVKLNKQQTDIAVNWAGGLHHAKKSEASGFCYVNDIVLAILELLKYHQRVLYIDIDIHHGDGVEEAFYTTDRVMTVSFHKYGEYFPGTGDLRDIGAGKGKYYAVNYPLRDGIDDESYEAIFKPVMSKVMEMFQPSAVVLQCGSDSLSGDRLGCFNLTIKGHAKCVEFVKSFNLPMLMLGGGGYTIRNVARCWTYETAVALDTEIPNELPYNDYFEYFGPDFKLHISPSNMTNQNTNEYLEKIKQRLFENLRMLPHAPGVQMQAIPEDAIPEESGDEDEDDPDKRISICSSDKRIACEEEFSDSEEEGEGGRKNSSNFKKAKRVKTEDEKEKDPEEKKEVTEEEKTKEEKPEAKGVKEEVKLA
- Protocol Summary: Inhibition of full-length recombinant human HDAC1 (1 to 482 residues) expressed in baculovirus infected insect cells using […] as substrate incubated for 30 mins by fluorescence based analysis
Express your answer in µM, writing the number without its unit.

Check out these entries, answers already filled in.
Cc1ccc(C2=N[C@@H](CC(=O)Nc3ccc(CC(=O)NO)cc3)c3nnc(C)n3-c3ccccc32)cc1; 2.9
Cc1nnc2n1-c1sc3c(c1C(c1ccc(Cl)cc1)=N[C@H]2CC(=O)Nc1ccc(CC(=O)NO)cc1)CCCC3; 1.4
Cc1nnc2n1-c1sc3c(c1C(c1ccc(Cl)cc1)=N[C@H]2CC(=O)Nc1ccc(C(=O)NO)cc1)CCCC3; 0.72

Q) Param item = `Cc1nnc2n1-c1sc3c(c1C(c1ccc(Cl)cc1)=N[C@H]2CC(=O)Nc1ccc(/C=C/C(=O)NO)cc1)CCCC3` ; retrieve measured IC50.
A) 0.79

* * *

pIC50 by entry:
- Tested on: K562
- Protocol Summary: Antiproliferative activity against human K562 cells incubated for 48 hrs by CCK8 assay
- Type: functional, cell-based
- Test Conditions: K562, 48 h
pIC50: −log10 of the molar value.

Cc1nnc2n1-c1ccc(Cl)cc1C(c1ccccc1Cl)=N[C@H]2CC(=O)NCc1ccc(C(=O)NO)cc1; < 5.00
Cc1nnc2n1-c1ccccc1C(c1ccc(Cl)cc1)=N[C@H]2CC(=O)Nc1ccc(/C=C/C(=O)NO)cc1; 5.82
Cc1nnc2n1-c1ccccc1C(c1ccccc1)=N[C@H]2CC(=O)Nc1ccc(CC(=O)NO)cc1; < 5.00

Q) Param item = `Cc1ccc(C2=N[C@@H](CC(=O)NCc3ccc(C(=O)NO)cc3)c3nnc(C)n3-c3ccccc32)cc1` ; retrieve measured pIC50.
A) < 5.00

Q) Param item: `Cc1nnc2n1-c1sc3c(c1C(c1ccc(Cl)cc1)=N[C@H]2CC(=O)NCc1ccc(C(=O)NO)cc1)CCCC3`
A) < 5.00

Q) Param item: `Cc1nnc2n1-c1ccc(Cl)cc1C(c1ccccc1Cl)=N[C@H]2CC(=O)Nc1ccc(/C=C/C(=O)NO)cc1`
A) 5.51

Q) Param item: `Cc1nnc2n1-c1ccccc1C(c1ccc(Cl)cc1)=N[C@H]2CC(=O)Nc1ccc(CC(=O)NO)cc1`
A) < 5.00

Q) Param item: `Cc1ccc(C2=N[C@@H](CC(=O)Nc3ccc(/C=C/C(=O)NO)cc3)c3nnc(C)n3-c3ccccc32)cc1`
A) 5.85

* * *

- Test system: K562
- Protocol Summary: Antiproliferative activity against human K562 cells incubated for 48 hrs by CCK8 assay
- Type: functional, cell-based
- Test Conditions: K562, 48 h
Attribute Measured: pIC50
Notebook: values listed as pIC50 are -log10 of the concentration (mol/L).

Check out these entries, answers already filled in.
Cc1nnc2n1-c1sc3c(c1C(c1ccc(Cl)cc1)=N[C@H]2CC(=O)Nc1ccc(/C=C/C(=O)NO)cc1)CCCC3; 5.62
Cc1sc2c(c1C)C(c1ccc(Cl)cc1)=N[C@@H](CC(=O)OC(C)(C)C)c1nnc(C)n1-2; 5.85
Cc1nnc2n1-c1ccccc1C(c1ccccc1)=N[C@H]2CC(=O)Nc1ccc(C(=O)NO)cc1; 5.48

Q) Param item = `Cc1nnc2n1-c1ccccc1C(c1ccccc1)=N[C@H]2CC(=O)Nc1ccc(/C=C/C(=O)NO)cc1` ; retrieve measured pIC50.
A) 5.72

Q) Param item: `Cc1nnc2n1-c1ccc(Cl)cc1C(c1ccccc1Cl)=N[C@H]2CC(=O)Nc1ccc(CC(=O)NO)cc1`
A) 5.10

Q) Param item: `Cc1nnc2n1-c1sc3c(c1C(c1ccc(Cl)cc1)=N[C@H]2CC(=O)Nc1ccc(C(=O)NO)cc1)CCCC3`
A) 6.39
